protocolText: Concentration-corrected QT
Assay type: in vivo, human
assayConditions: human, plasma, oral, 500 mg
reportedProperty: Cmax

// recorded Cmax for N#Cc1ccnc(N2C(=O)CC[C@H]2C(=O)N(c2cncc(F)c2)[C@H](C(=O)NC2CC(F)(F)C2)c2ccccc2Cl)c1 : 6550 ng/mL

---

protocolText: Exposure-efficacy analysis
Type: in vivo, human
assayConditions: human, plasma, oral, AUCss range of quartile, AUCss quartile 2; 50 patients
reportedProperty: AUC

// recorded AUC for N#Cc1ccnc(N2C(=O)CC[C@H]2C(=O)N(c2cncc(F)c2)[C@H](C(=O)NC2CC(F)(F)C2)c2ccccc2Cl)c1 : 93.4 to 122 µg·h/mL
